# Tested on: ATP;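 further: ATP exposure 15 min at 22 °C before imaging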
# ASSAY: switch fluorescence ratio, 500 uM ATP over buffer (Cy3 cluster intensity, sum of 5 cycles each) (fold (ratio)); higher = stronger signal-on switching upon ATP binding; sequences stand for … in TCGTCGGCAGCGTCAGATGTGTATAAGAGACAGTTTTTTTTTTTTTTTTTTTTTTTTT…TC
# CONDITION: aptamer strand: ATP DNA aptamer (quencher-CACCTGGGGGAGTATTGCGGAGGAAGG + anchor), 100 nM annealed; ATP concentration: 500 uM
OUTCOME_MEASURE: switch fluorescence ratio
Lab note: record just the number, no unit beside it.

Sample answers from the record:
* TTAGAGGTTA | 0.986
* TTGTACAA | 0.993
* GGATATGTGG | 0.99
* AAGGTATGTC | 1.01
* CTAAGAAGGG | 1.05

For TGGCAATATT , what is its reported switch fluorescence ratio?
2.31

Which switch fluorescence ratio is reported for this sequence? ATTTTTGAGT
1.02

Could you share which switch fluorescence ratio value was measured for CCGTTGGGGT ?
1.11

----------
# Tested on: ATP;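 further: ATP exposure 15 min at 22 °C before imaging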
# ASSAY: switch fluorescence ratio, 500 uM ATP over buffer (Cy3 cluster intensity, sum of 5 cycles each) (fold (ratio)); higher = stronger signal-on switching upon ATP binding; sequences stand for … in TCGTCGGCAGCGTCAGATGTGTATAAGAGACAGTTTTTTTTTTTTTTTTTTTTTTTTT…TC
# CONDITION: aptamer strand: ATP DNA aptamer (quencher-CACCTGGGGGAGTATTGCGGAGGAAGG + anchor), 100 nM annealed; ATP concentration: 500 uM
// switch fluorescence ratio lookup, one value per entry
# print the numeric value only

Reference set, count: 3
* AGTGGACTAG | 0.989
* TTAAAATGTA | 0.992
* TATCTAGAGG | 1.01

Record request: switch fluorescence ratio value, item GATTATTCGT
0.99

Look at this sequence and give its reported switch fluorescence ratio. AATGGTCTCG
0.984

Form field: reported switch fluorescence ratio of TGGTTTTAGG
0.99

Record request: switch fluorescence ratio value, item AGCTATAGTA
0.991

Which value of switch fluorescence ratio has been reported for AGGGTGGGGA in the records?
1.01

Can you share its switch fluorescence ratio? I mean this sequence: TTTGACTTGA
0.984

So what does the record say about switch fluorescence ratio for TAGAGTTCTC ?
1.01

Query (sequence): CAAAAGGTTA ; field requested: switch fluorescence ratio
0.996

Field request: switch fluorescence ratio | item: TTTCCATATT
0.984

Would you mind telling me what switch fluorescence ratio value was observed for GCTTGTTTGA ?
1.01

Reported switch fluorescence ratio, sequence GTTGCCGGGG : ____
1.01

Could you tell me which switch fluorescence ratio is on file for CGGGGATTTT ?
1.01

----------
# System: ATP;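 further: ATP exposure 15 min at 22 °C before imaging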
# ASSAY: switch fluorescence ratio, 500 uM ATP over buffer (Cy3 cluster intensity, sum of 5 cycles each) (fold (ratio)); higher = stronger signal-on switching upon ATP binding; sequences stand for … in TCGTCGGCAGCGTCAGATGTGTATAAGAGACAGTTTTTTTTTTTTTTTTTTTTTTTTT…TC
# CONDITION: aptamer strand: ATP DNA aptamer (quencher-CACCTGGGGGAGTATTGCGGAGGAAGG + anchor), 100 nM annealed; ATP concentration: 500 uM
OUTCOME_MEASURE: switch fluorescence ratio

* ATTGGGTTGT | 0.973
* AGGCTTAATC | 0.99
* GTTTTCTTAG | 0.974
* TATTGTATGC | 0.996
* CGTGCGGGTT | 0.993

Next up:
Which switch fluorescence ratio reading was recorded for the sequence CGAGGGGGTG ?
1.02

----------
Quick list: switch fluorescence ratio per entry.
# Tested on: ATP;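 further: ATP exposure 15 min at 22 °C before imaging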
# ASSAY: switch fluorescence ratio, 500 uM ATP over buffer (Cy3 cluster intensity, sum of 5 cycles each) (fold (ratio)); higher = stronger signal-on switching upon ATP binding; sequences stand for … in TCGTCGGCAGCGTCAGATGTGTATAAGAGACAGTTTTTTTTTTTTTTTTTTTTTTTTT…TC
# CONDITION: aptamer strand: ATP DNA aptamer (quencher-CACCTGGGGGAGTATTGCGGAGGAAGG + anchor), 100 nM annealed; ATP concentration: 500 uM
Give the figure only, with no unit attached.

// below: answered sequences
* GAGTTGTTGT | 0.996
* CAGGATCTTG | 0.974

Given GGGTTTCTCT , state its recorded switch fluorescence ratio.
0.994

Bench note: what switch fluorescence ratio did GTTAGGCCTG show?
0.969

----------
# Test system: ATP;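 further: ATP exposure 15 min at 22 °C before imaging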
# ASSAY: switch fluorescence ratio, 500 uM ATP over buffer (Cy3 cluster intensity, sum of 5 cycles each) (fold (ratio)); higher = stronger signal-on switching upon ATP binding; sequences stand for … in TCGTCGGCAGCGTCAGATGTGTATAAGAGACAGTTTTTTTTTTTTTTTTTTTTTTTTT…TC
# CONDITION: aptamer strand: ATP DNA aptamer (quencher-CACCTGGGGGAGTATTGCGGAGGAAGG + anchor), 100 nM annealed; ATP concentration: 500 uM
OUTCOME_MEASURE: switch fluorescence ratio
Could you respond with only the numeric value?

* TAGGGTTGGA | 1
* CGTACTTCCG | 1.02
* CGCTTGACTT | 0.985

// lookup switch fluorescence ratio | system=ATP | key= AAGATGCTTG;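 further: ATP exposure 15 min at 22 °C before imaging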
0.998

Give recorded switch fluorescence ratio with ATP for the following sequence: GAGTTGTGGG
0.993

Request: switch fluorescence ratio, test system ATP, entry ATATTAAAAC;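 further: ATP exposure 15 min at 22 °C before imaging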
0.988

----------
# Test system: ATP;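 further: ATP exposure 15 min at 22 °C before imaging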
# ASSAY: switch fluorescence ratio, 500 uM ATP over buffer (Cy3 cluster intensity, sum of 5 cycles each) (fold (ratio)); higher = stronger signal-on switching upon ATP binding; sequences stand for … in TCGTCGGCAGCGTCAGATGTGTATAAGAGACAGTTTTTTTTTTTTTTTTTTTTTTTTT…TC
# CONDITION: aptamer strand: ATP DNA aptamer (quencher-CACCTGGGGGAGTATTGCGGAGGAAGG + anchor), 100 nM annealed; ATP concentration: 500 uM
OUTCOME_MEASURE: switch fluorescence ratio
Give the figure by itself; no unit, no explanation.

Worked cases, answers included:
* AGTCAGTGAC | 1.01
* ATAAGGCAGG | 0.999
* TCTAGTGGTA | 0.989
* TAGTGAACTT | 1.01

Query: switch fluorescence ratio; subject: GCGATTGATG
1.02

Fill in: switch fluorescence ratio of TTCCCATTTT is ___
0.995

----------
# maps each entry to its switch fluorescence ratio
# System: ATP;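 further: ATP exposure 15 min at 22 °C before imaging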
# ASSAY: switch fluorescence ratio, 500 uM ATP over buffer (Cy3 cluster intensity, sum of 5 cycles each) (fold (ratio)); higher = stronger signal-on switching upon ATP binding; sequences stand for … in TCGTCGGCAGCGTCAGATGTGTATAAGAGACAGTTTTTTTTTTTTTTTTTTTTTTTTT…TC
# CONDITION: aptamer strand: ATP DNA aptamer (quencher-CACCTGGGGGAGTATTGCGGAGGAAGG + anchor), 100 nM annealed; ATP concentration: 500 uM
Would you mind answering with just the numeric figure?

Example results:
* CGGGGGGGGG | 1.02
* AAGTAGCTAT | 1.01

Now consider a different sequence.
Short answer please: switch fluorescence ratio, ATP, entry AATGTGAATG
0.992

----------
# System: ATP;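 further: ATP exposure 15 min at 22 °C before imaging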
# ASSAY: switch fluorescence ratio, 500 uM ATP over buffer (Cy3 cluster intensity, sum of 5 cycles each) (fold (ratio)); higher = stronger signal-on switching upon ATP binding; sequences stand for … in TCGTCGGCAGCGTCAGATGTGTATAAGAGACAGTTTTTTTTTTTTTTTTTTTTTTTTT…TC
# CONDITION: aptamer strand: ATP DNA aptamer (quencher-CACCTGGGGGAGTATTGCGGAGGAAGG + anchor), 100 nM annealed; ATP concentration: 500 uM
Assign MET to entries whose switch fluorescence ratio meets or exceeds 1; assign NOT MET to the rest.

Example entries begin here.
- AATAAGTCCT: MET
- CGAGGGGAGG: MET
- ATGGCGGCGT: NOT MET

# check: switch fluorescence ratio of CGTGGCGCGT is greater than or equal to 1
MET

Form field: switch fluorescence ratio at least 1? Entry: CTAGGGGTAC
MET

Could you please find out whether TACGCTTATA has switch fluorescence ratio that meets 1 or exceeds it?
MET

Has CACTTTACTT a recorded switch fluorescence ratio greater than or equal to 1?
MET

Could you verify whether the entry TACCCCAATT shows switch fluorescence ratio of no less than 1?
MET

Please indicate if the recorded switch fluorescence ratio for CCTTTGCAGG meets or exceeds 1.
MET

Say whether GCGTAAGGTG shows switch fluorescence ratio of 1 or more.
MET

State whether the measured switch fluorescence ratio reaches 1, counting equality as reaching it, for GAAGGGAGGA
MET

Please indicate if the recorded switch fluorescence ratio for GGGTCTTGGG meets or exceeds 1.
NOT MET

Determine whether measured switch fluorescence ratio meets or exceeds 1 for GCGACGGGGA
MET

Numbers sourced from the supplement of paper PMC10126150.
